# target-desc: UniProt P37288
# Sequence (P37288 whole entry): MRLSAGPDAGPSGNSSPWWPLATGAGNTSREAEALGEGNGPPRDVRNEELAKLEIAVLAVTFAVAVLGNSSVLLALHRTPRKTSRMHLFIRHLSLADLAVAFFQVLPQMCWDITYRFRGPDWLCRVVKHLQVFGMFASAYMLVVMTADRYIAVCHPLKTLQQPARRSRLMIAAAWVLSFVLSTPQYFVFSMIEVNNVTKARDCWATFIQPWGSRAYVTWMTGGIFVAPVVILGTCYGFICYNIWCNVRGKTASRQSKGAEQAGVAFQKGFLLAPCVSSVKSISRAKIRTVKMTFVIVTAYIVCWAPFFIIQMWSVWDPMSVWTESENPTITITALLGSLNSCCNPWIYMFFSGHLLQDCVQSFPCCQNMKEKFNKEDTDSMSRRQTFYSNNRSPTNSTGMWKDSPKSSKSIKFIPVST
# assay-method-text: Cellular in vitro test for determination of the vasopressin receptor activity (aequorin luminescence, CHO cells), human V1a
# condition-context: cell line transfected with the human V1a receptor, antagonism of [Arg8]-vasopressin, read-out: IC50 hV1a
pIC50: recorded values
In simple prose, pIC50 is minus the logarithm base ten of a concentration in moles per litre.

Example results:
[[record]]
smiles_input = "C[C@H](NC(=O)Cn1nc(-c2ccc(Cl)s2)n(Cc2ccccc2F)c1=O)c1cccc(C(F)(F)F)c1"
measurement_type = "pIC50"
readout_value = 7.43

[[record]]
smiles_input = "Cc1cc(Cl)ccc1-c1nn(CC(=O)NCCc2ccccc2C(F)(F)F)c(=O)n1Cc1ccccc1F"
measurement_type = "pIC50"
readout_value = 7.12

[[record]]
smiles_input = "COc1ccccc1CCNC(=O)Cn1nc(-c2ccc(Cl)cc2)n(C2CC2)c1=O"
measurement_type = "pIC50"
readout_value = 6.36


So what's the measured pIC50 for this one? O=C(Cn1nc(-c2ccc(Cl)cc2)n(Cc2ccccc2F)c1=O)NCc1cccc(C(F)(F)F)c1 7.02
